Test: Rat study: drug plasma levels (pharmacokinetics)
Type: in vivo
Conditions: Dose 1, Multiple, n = 2
REPORTED_METRIC: Tmax (h)

# SMILES_STR, NUMERIC_VALUE
records = [
    ("O=C(O)COc1ccc2c(c1)CCN(Cc1ccc(-c3ccc(C(F)(F)F)cc3)s1)CC2", 4),
]

====

Assay: Rat study: drug plasma levels (pharmacokinetics)
Format: in vivo
Conditions: Sprague Dawley, plasma, 3 mg/kg, Dose 3, Multiple

# SMILES_STR, DISPLAY_UNIT, Cmax
measured = [
    ("O=C(O)COc1ccc2c(c1)CCN(Cc1ccc(-c3ccc(C(F)(F)F)cc3)s1)CC2", "ng/mL", 2030),
]
